Target: SARS-CoV-2 spike RBD (WT) (Severe acute respiratory syndrome …, UniProt P0DTC2)
Test: ELISA
Parameters: unit not given here
Measured Attribute: binding score
Give bare numbers.

Binder	binding score
D110 (antibody, V domains shown) VH: EVQLLESGGGLVQPGGSLRLSCTASGFTFSNYAMNWVRQAPGQGLEWVSAISGSGYSTYYVDSAKGRFTISRDNSKNTLYLQMNSLRADDTAVFYCTKSTYYDNSGYYSVFDYWGQGTLVTVSS VL: NFMLTQPHSVSESPGETVTISCTRSSGNIASKFVQWFQQRPGSSPTTVIYENNQRPSGVPDRFSGSIDSSSNSASLTISGLKTEDEADYYCQSSDSTNVVFGGGTKLTVL	2330

Attention now turns to another entry.
Given the binder D123 (antibody, V domains shown) VH: EVQLVESGGGLVQPGRSLRLSCAASGFIFDDYAMHWVRQVPGKGLEWVSGISWNGGIIGQADSVKGRFTISRDNAKNSLYLQMNNLRAEDTALYFCTKDVGPGSPNYFDSWGQGTLVTVSS VL: DIQMTQSPSTLSASVGDRVTITCRASQSISSWLAWYQQKPGKAPKFLIYKTSNLENGVPSRFSGSGSGTEFTLTISSLQPDDFATYFCQEYITNSRTFGQGTRLEIK , what is its reported binding score?
7780

Just for reference, paper PMC9876794 is where these values come from.
